Origin of the recorded values: patent US9676782B2

Molecular target: rat mGlu5 (Rattus norvegicus (Rat))
Sequence (P31424 21-1203): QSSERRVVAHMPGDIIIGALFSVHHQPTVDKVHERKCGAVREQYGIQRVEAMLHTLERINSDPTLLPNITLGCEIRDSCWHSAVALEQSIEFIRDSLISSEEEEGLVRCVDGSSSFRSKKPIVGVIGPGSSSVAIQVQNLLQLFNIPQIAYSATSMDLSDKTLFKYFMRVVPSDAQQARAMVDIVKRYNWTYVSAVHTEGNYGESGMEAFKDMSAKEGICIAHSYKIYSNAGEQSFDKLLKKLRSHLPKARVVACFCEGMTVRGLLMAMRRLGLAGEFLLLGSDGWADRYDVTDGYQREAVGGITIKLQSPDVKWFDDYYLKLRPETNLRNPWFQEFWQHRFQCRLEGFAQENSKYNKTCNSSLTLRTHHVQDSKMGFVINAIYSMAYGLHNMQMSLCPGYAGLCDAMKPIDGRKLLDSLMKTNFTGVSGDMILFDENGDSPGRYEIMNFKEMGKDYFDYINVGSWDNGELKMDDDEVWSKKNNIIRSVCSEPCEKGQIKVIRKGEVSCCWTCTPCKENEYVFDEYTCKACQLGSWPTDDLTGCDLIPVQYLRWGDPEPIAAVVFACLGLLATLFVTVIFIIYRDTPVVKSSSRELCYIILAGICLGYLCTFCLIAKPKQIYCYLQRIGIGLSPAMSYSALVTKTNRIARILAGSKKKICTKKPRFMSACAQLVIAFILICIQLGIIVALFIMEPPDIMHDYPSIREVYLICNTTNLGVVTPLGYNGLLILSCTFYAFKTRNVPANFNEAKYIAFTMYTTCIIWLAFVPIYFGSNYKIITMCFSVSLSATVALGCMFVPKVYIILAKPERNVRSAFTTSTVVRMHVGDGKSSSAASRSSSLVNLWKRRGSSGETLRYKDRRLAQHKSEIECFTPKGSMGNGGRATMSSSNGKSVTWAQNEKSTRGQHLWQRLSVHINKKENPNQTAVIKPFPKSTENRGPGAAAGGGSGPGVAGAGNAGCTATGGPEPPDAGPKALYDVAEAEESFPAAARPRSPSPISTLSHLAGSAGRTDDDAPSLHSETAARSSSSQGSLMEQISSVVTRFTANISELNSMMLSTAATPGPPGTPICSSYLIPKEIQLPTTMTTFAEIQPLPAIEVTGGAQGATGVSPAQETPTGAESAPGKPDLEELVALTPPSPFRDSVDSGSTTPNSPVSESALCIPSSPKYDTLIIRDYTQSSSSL
Assay: mGlu5 Ca2+ flux assay
Assay type: cell-based
Conditions: read-out: rat mGlu5 EC50 or IC50
pEC50: −log10 of the molar value.
Listed next: entries and their corresponding pEC50.
quantity-name: pEC50

>>> print(df.to_string())
                           structure_smiles                          test_system  quantity_name  test_value
0  COc1ccc(N(C)Cc2cc3n(n2)CCN(c2ccc(Cl)cc2F)C3=O)cc1  rat mGlu5 (Rattus norvegicus (Rat))          pEC50      < 4.52
1  Cc1cccc(NCc2cc3n(n2)CCN(c2ccc(F)cc2)C3=O)c1  rat mGlu5 (Rattus norvegicus (Rat))          pEC50        5.22
2  C[C@@H]1CN(c2ccc(F)cc2)C(=O)c2cc(CNc3ccc(F)c(F)c3)nn21  rat mGlu5 (Rattus norvegicus (Rat))          pEC50      < 4.52
3  C[C@@H]1CN(c2ccc(F)cc2)C(=O)c2cc(CNc3ccc(CC#N)cc3)nn21  rat mGlu5 (Rattus norvegicus (Rat))          pEC50      < 4.52
